target: Mac-1/ICAM-1 (Homo sapiens, UniProt P05107+P11215); test: Mac-1/ICAM-1 ELISA; settings: Mac-1 receptor coated plates, 5dICAM-Fc binding
Sequence (P05107 23-769, other chains not shown): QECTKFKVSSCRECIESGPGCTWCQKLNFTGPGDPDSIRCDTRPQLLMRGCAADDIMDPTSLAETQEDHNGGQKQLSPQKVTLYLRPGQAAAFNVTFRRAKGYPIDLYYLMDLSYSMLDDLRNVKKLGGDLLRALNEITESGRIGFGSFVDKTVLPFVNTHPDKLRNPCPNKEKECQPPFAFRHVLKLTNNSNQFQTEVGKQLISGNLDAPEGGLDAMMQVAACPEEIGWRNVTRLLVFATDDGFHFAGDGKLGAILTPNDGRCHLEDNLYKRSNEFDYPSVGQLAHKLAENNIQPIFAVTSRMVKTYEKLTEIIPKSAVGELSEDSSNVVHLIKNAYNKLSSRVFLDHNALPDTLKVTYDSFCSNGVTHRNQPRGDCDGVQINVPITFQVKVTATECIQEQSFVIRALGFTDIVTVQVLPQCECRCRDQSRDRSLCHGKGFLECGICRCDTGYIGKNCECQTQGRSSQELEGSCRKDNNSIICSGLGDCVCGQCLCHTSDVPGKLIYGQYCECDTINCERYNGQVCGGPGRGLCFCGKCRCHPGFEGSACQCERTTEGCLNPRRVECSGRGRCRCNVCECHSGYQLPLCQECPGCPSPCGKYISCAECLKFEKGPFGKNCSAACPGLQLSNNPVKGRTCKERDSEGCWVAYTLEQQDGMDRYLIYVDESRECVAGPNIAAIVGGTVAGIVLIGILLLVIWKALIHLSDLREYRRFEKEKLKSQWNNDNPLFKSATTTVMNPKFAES
endpoint.label: IC50 (nM)

**Query** Write down IC50 measured for item `Cc1cc(C(=O)NCc2cccc(O)c2)sc1C(=O)N[C@@H](CNC(=O)c1cccs1)C(=O)O`
**Result** 94

1 = O=C(NC[C@H](NC(=O)c1sc(C(=O)NCc2cccc(O)c2)cc1C(F)(F)F)C(=O)O)c1cccs1
2 = O=C(NC[C@H](NC(=O)c1sc(C(=O)NCc2cccc3[nH]ncc23)cc1Cl)C(=O)O)c1cccs1
**Query** Lab note: check whether 1 or 2 has the lower measured IC50. Write the label of whichever entry you select.
**Result** 2

----------
molecular target: sLFA-1/ICAM-1 (Homo sapiens, UniProt P05107+P20701, DEL701-769); assay: sLFA-1/ICAM-1 ELISA; conditions: sLFA-1 coated plates, 5dICAM-Fc binding, read-out: LFA/ICAM (IC50)
Sequence (P20701 26-1090 limits assumed, stated change not applied): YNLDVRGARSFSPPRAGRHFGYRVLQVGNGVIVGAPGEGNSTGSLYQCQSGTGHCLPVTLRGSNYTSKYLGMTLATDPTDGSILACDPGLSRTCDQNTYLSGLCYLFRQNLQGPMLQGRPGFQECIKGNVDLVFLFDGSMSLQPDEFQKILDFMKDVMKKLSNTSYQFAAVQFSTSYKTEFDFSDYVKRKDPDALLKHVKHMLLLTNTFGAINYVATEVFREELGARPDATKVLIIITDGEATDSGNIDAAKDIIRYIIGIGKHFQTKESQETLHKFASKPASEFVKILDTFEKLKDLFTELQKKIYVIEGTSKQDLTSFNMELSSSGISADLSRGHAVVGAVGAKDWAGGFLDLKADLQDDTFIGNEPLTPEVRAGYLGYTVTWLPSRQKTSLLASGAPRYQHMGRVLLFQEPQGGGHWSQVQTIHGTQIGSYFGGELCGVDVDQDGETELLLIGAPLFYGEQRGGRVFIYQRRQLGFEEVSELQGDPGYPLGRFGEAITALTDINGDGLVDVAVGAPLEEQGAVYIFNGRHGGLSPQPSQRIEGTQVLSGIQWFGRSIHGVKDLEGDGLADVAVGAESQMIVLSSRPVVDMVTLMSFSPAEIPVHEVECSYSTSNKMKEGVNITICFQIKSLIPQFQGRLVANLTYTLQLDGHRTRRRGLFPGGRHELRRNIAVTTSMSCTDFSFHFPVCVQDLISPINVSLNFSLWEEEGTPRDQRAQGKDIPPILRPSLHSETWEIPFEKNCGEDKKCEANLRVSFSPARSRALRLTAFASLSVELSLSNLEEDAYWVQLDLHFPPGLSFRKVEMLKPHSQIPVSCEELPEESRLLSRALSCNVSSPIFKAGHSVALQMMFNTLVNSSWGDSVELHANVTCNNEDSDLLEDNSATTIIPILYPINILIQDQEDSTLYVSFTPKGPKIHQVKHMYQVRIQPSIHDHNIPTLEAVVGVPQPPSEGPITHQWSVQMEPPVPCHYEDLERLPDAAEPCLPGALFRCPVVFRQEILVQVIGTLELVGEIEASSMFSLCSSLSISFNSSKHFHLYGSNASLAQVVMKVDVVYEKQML
Sequence (P05107 23-700 limits assumed, stated change not applied): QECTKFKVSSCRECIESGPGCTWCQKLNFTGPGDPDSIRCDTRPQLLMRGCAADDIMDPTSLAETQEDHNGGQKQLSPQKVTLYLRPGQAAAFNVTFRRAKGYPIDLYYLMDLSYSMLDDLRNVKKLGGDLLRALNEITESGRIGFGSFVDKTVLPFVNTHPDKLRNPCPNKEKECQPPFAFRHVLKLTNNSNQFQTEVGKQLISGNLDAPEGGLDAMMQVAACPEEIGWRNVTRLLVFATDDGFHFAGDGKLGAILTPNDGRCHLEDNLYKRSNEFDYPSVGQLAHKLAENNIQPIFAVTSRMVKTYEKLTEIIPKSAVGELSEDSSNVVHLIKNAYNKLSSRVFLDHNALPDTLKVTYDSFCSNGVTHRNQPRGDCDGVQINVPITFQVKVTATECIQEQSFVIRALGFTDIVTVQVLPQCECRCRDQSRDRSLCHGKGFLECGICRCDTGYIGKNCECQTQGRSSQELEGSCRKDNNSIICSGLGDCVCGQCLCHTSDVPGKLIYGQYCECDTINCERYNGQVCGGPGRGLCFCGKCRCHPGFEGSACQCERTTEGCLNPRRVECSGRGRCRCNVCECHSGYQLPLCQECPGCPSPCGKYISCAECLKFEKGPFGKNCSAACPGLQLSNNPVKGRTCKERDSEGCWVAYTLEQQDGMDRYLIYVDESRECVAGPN
endpoint.label: IC50 (nM)

Example entries and their recorded answers appear below.
**Query** Report IC50 for Cc1cc(C(=O)NCc2cccc(O)c2)sc1C(=O)N[C@@H](CNC(=O)c1cccc(C(=O)O)c1)C(=O)O [Example 47]
**Result** 289

**Query** Give the measured IC50 for Cc1nc(NC(=O)Cc2cccc(O)c2)sc1C(=O)N[C@@H](CNC(=O)c1cccc(O)c1)C(=O)O [Example 5]
**Result** 2

**Query** Specify IC50 for Cc1cc(C(=O)NCc2cccc3c2CC(=O)N3)sc1C(=O)N[C@@H](CNC(=O)c1cccs1)C(=O)O [Example 35] and stop.
**Result** 671

**Query** Please supply the value of reported IC50 for the item O=C(NC[C@H](NC(=O)c1sc(C(=O)NCc2cccc3[nH]ncc23)cc1C(F)(F)F)C(=O)O)c1cccs1 [Example 58]
**Result** 41

**Query** Fill in reported IC50 for this entry: Cc1nc(NC(=O)Cc2cccc3[nH]ncc23)sc1C(=O)N[C@@H](CNC(=O)c1cc(O)cc(O)c1)C(=O)O [Example 15]
**Result** 3

1 = Cc1cc(C(=O)NCc2cccc(O)c2)sc1C(=O)N[C@@H](CNC(=O)c1cccc2[nH]ncc12)C(=O)O [Example 44]
2 = Cc1cc(C(=O)NCc2cccc(O)c2)sc1C(=O)N[C@@H](CNC(=O)c1cccc(O)c1)C(=O)O [Example 40]
**Query** Of the two listed items, which has the higher IC50? First: 1 Second: 2 Bench note: the answer is the label of the chosen record.
**Result** 1

----------
Molecular target: Mac-1/ICAM-1 (Homo sapiens, UniProt P05107+P11215)
Assay: Mac-1/ICAM-1 ELISA
Details: Mac-1 receptor coated plates, 5dICAM-Fc binding
Experimental: sLFA-1/ICAM-1 ELISA and Mac-1/ICAM-1 ELISA Plates were coated with either 50 μl/well of 2.0 ug/ml solution of sLFA-1 or Mac-1 receptor in divalent cation buffer (1 mM MnCI2, 0.14M NaCl, 20 mM HEPES pH 7.2) at 4° C. overnight. Two hundred fifty μl of blocking buffer (1% BSA in divalent cation buffer) was added to each well 1 hour at 37° C. Plates were washed 3 times with wash buffer (TBS/0.05% Tween-20/1 mM MnCl2). The compound to be tested was solubilized in DMSO. […] Absorbance was measured at 450 nm.
IC50 reference

Some entries whose results are on file:
**Query** Determine from records and report IC50 for Cc1nc(OCCCc2cccc(O)c2)sc1C(=O)N[C@@H](CNC(=O)c1cccs1)C(=O)O [Example 13]
**Result** > 3 µM

**Query** Identify IC50 associated with the molecule Cc1cc(C(=O)NCc2cccc(O)c2)sc1C(=O)N[C@@H](CNC(=O)c1cnccn1)C(=O)O [Example 41]
**Result** > 3 µM

**Query** Please give measured IC50 of the following entry: Cc1cc(C(=O)NCc2cccc3c2CC(=O)N3)sc1C(=O)N[C@@H](CNC(=O)c1cccs1)C(=O)O [Example 35]
**Result** > 3 µM

**Query** Consider the molecule Cc1cc(C(=O)NCc2cccc3[nH]ccc23)sc1C(=O)N[C@@H](CNC(=O)c1cccs1)C(=O)O [Example 34] and give its recorded IC50.
**Result** > 3 µM

**Query** Consider the molecule Cc1cc(C(=O)NCc2ccc(F)c(O)c2)sc1C(=O)N[C@@H](CNC(=O)c1cccs1)C(=O)O [Example 64] . State its measured IC50.
**Result** > 3 µM

Further cases:
**Query** Report IC50 for O=C1Cc2c(CNC(=O)c3cc(C(F)(F)F)c(C(=O)N[C@@H](CNC(=O)c4cccs4)C(=O)O)s3)cccc2N1 [Example 51]
**Result** > 3 µM

**Query** Provide IC50 value for the following molecule: O=C(NC[C@H](NC(=O)c1sc(C(=O)NCc2cccc3[nH]ccc23)cc1C(F)(F)F)C(=O)O)c1cccs1 [Example 50]
**Result** > 3 µM
